Tested on: rat heart tissue
test-name: GENECALLING differential gene expression analysis after dosing of serotonin modulating agents
Format: in vivo, Sprague Dawley rats
run-parameters: CARDIOTOX 4
Hi there, I'd appreciate the recorded Effects on Transcription Level: Novel gene fragment, 80 bp for every entry that follows.
Give bare numbers, in fold.

CN1C[C@H](C(=O)N[C@]2(C)O[C@@]3(O)[C@@H]4CCCN4C(=O)[C@H](Cc4ccccc4)N3C2=O)C[C@@H]2c3cccc4[nH]cc(c34)C[C@H]21 [dihydroergotamine] ... −1.4
CNCCC(Oc1ccc(C(F)(F)F)cc1)c1ccccc1 (stereo not drawn) [fluoxetine] ... −1.3
CNS(=O)(=O)Cc1ccc2[nH]cc(CCN(C)C)c2c1 [sumatriptan] ... −1.4
CC(C)CC(N(C)C)C1(c2ccc(Cl)cc2)CCC1 (stereo not drawn) [sibutramine] ... −1.3
CCNC(C)Cc1cccc(C(F)(F)F)c1 (stereo not drawn) [fenfluramine] ... −1.1

Now for another entry.
Exercise: Please state recorded Effects on Transcription Level: Novel gene fragment, 80 bp (tested on rat heart tissue) of CCN[C@@H](C)Cc1cccc(C(F)(F)F)c1 [dexfenfluramine]
Solution: −1.6
